Data origin, for the record: patent US8076352B2

The following molecules are shown together with reported pEC50 values.
Test system: hypoxia-inducible endogenous VEGF expression in HeLa cells
PROTOCOL DETAILS: Hypoxia-inducible endogenous VEGF expression, VEGF ELISA of conditioned media (dose-response EC50)
Type: cell-based
MEASUREMENT CONDITIONS: Homo sapiens, HeLa cells, hypoxic conditions (1% O2)
pEC50: −log10 of the molar value.

O=C(Oc1ccccc1Cl)N1CCc2c([nH]c3ccc(Cl)cc23)C1c1ccc(F)cc1 (stereo not drawn)	6.70 to 7.40
O=C(Oc1ccc(Cl)cc1)N1CCc2c([nH]c3ccc(Cl)cc23)C1c1ccc(NC2CCOCC2)cc1 (stereo not drawn)	> 8.10
CCOC(=O)N1CCc2c([nH]c3ccc(Cl)cc23)C1c1ccc(C(=O)N(C)CCc2ccccn2)cc1 (stereo not drawn)	6.00 to 6.70
O=C(Oc1ccc(Cl)cc1)N1CCc2c([nH]c3ccc(Cl)cc23)C1c1ccc(OCCCCCCN2CCCCC2)cc1 (stereo not drawn)	> 8.10
O=C(Oc1ccc(Br)cc1)N1CCc2c([nH]c3ccc(Cl)cc23)C1c1ccc(OCC(O)CO)cc1 (stereo not drawn)	> 8.10

Memo: CNc1ncc(C2c3[nH]c4ccc(Br)cc4c3CCN2c2ncccn2)cn1 (stereo not drawn) , reported pEC50: 7.40 to 8.10

Memo: COCCCNCCCCCCOc1ccc(C2c3[nH]c4ccc(Cl)cc4c3CCN2C(=O)Oc2ccc(F)cc2)cc1 (stereo not drawn) , reported pEC50: > 8.10

Memo: O=C(Oc1ccc(F)cc1)N1CCc2c([nH]c3ccc(Cl)cc23)C1c1ccc(OCC(O)CN2CCOCC2)cc1 (stereo not drawn) , reported pEC50: > 8.10

Memo: CCOC(=O)N1CCC(NC(=O)c2ccc(C3c4[nH]c5ccc(Cl)cc5c4CCN3C(=O)OCC)cc2)CC1 (stereo not drawn) , reported pEC50: 7.40 to 8.10

Memo: O=C(Oc1ccc(Cl)cc1)N1CCc2c([nH]c3ccc(Cl)cc23)C1c1ccc(OCCCCCCn2ccnc2)cc1 (stereo not drawn) , reported pEC50: > 8.10

Memo: COCCOc1ccc(C2c3[nH]c4ccc(Cl)cc4c3CCN2C(=O)Oc2ccc(Cl)cc2)cc1 (stereo not drawn) , reported pEC50: > 8.10

Memo: CCOC(=O)N1CCc2c([nH]c3ccc(Br)cc23)C1c1ccc(CO)cc1 (stereo not drawn) , reported pEC50: > 8.10

Memo: COCCCNCCCCCCOc1ccc(C2c3[nH]c4ccc(Cl)cc4c3CCN2C(=O)Oc2ccc(Cl)cc2)cc1 (stereo not drawn) , reported pEC50: > 8.10

Memo: CCOC(=O)N1CCc2c([nH]c3ccc(Cl)cc23)C1C(C)Cc1ccc2c(c1)OCO2 (stereo not drawn) , reported pEC50: 6.00 to 6.70

Memo: Cc1ccc(OC(=O)N2CCc3c([nH]c4ccc(Cl)cc34)C2c2ccc(OCC(O)CO)cc2)cc1 (stereo not drawn) , reported pEC50: > 8.10
